Overview of recorded Emin (human M4) for various molecules
# target_or_system: Human M4 (Homo sapiens, UniProt P08173)
# Construct: expressed in transfected cells; host or cells: CHO-K1 (ATCC), stably expressing M4 and Gqi5
# Sequence (P08173 whole entry): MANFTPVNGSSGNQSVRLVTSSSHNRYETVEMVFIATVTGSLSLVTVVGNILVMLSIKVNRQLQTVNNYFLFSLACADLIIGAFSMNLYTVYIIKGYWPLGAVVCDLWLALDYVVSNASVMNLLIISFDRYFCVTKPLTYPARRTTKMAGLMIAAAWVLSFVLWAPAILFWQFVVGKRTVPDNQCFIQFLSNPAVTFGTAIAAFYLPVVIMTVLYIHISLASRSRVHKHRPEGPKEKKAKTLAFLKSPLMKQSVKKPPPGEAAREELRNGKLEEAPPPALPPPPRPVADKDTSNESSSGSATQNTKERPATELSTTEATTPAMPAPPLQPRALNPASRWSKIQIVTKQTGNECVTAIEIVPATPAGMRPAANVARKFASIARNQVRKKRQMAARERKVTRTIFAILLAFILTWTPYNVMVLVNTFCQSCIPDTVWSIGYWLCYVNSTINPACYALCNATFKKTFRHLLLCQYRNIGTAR
# assay: mAChR M4 cell-based functional calcium flux assay (human M4/Gqi5/CHO cells)
# condition_description: % ACh maximum at 30 μM
Unit % implied. Number only.

INSERT INTO results (molecule, readout, assay_value) VALUES
  ('CC(C)(C)CCN1CCC2(CC1)C[C@H]2CNc1ccc(-c2cc(F)ccc2Cl)nn1', 'Emin (human M4)', 2.90),
  ('CCN1CCC2(CC1)CC2CNc1ccc(-c2cn(C)nc2C)nn1 (stereo not drawn)', 'Emin (human M4)', 75.5),
  ('Cc1nn(C)cc1-c1ccc(NCC2CC23CCN(CCC(C)(C)C)CC3)nn1 (stereo not drawn)', 'Emin (human M4)', 2.71),
  ('Fc1ccc(Cl)c(-c2ccc(NCC3CC34CCN(CC3CCCCC3)CC4)nn2)c1 (stereo not drawn)', 'Emin (human M4)', 1.95),
  ('CCC(C)CN1CCC2(CC1)CC2CNc1ccc(-c2cn(C)nc2C)nn1 (stereo not drawn)', 'Emin (human M4)', 4.31),
  ('CC(C)(C)CCN1CCC2(CC1)CC2CNc1ccc(-c2cc(F)cc(F)c2)nn1 (stereo not drawn)', 'Emin (human M4)', 2.48);

Need Emin (human M4) of CC(=O)Nc1ccc(-c2nnc(NCC3CC34CCN(CC3CCCCC3)CC4)c(C)c2C)cc1 (stereo not drawn) , thanks.
5

Need Emin (human M4) of Fc1cccc(CN2CCC3(CC2)CC3CNc2ccc(-c3cc(F)ccc3Cl)nn2)c1 (stereo not drawn) , thanks.
3

Need Emin (human M4) of CC(=O)Nc1ccc(-c2nnc(NCC3CC34CCN(CCC(C)(C)C)CC4)c(C)c2C)cc1 (stereo not drawn) , thanks.
5

Need Emin (human M4) of "CC(=O)Nc1ccc(-c2ccc(NC[C@H]3CC34CCN(CCC(C)(C)C)CC4)nn2)cc1" , thanks.
4

Need Emin (human M4) of "Fc1ccc(Cl)c(-c2ccc(NC[C@@H]3CC34CCN(CC35CC6CC(CC(C6)C3)C5)CC4)nn2)c1" , thanks.
2
